Values from PubChem BioAssay

Test: Plasmodium falciparum growth inhibition, primary screen, strain 3D7, DAPI fluorescence, 100 nL (AID 1184);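 also: parasites grown inside human red blood cells in medium with human serum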
Settings: P. falciparum 3D7 growth, 3 d, higher = more signal
Decision: z-score >= -1 yields MET, all other cases yield NOT MET.

C#C[C@H](O[Si](C#Cc1ccccc1)(C(C)C)C(C)C)c1ccccc1; NOT MET
COCC(=C=CC[C@H](O)c1ccc(OCCO)cc1)C[C@H](O)c1ccccn1; NOT MET
COc1cc2c(cc1OC)CN(C(=O)[C@H]1[C@@H]3C(=O)O[C@@H](c4ccccc4)[C@@H](c4ccccc4)N3[C@@H](c3ccc(O)cc3)[C@]13C(=O)Nc1ccc(C#CC4(O)CCCCCC4)cc13)CC2; NOT MET
COCCCNC(=O)[C@@]1(Sc2ccc(C)cc2)CC(=O)N(Cc2cc(C(F)(F)F)cc(C(F)(F)F)c2)[C@@H]1c1ccc(CO)cc1I; MET
COCCOC(=O)N1C(=O)[C@@]2(c3cc(C#CCCO)ccc31)[C@H](c1ccc(OCCO)cc1)N1[C@H](c3ccccc3)[C@H](c3ccccc3)OC(=O)[C@H]1[C@@H]2C(=O)NC[C@H](O)c1ccccc1; NOT MET
CN1CCC(CCCO)=CC1C1CC1 (centres undefined); MET
CO[C@H]1COC(=O)[C@H](C)NC(=O)CC=C[C@@H](C)[C@H](NS(=O)(=O)c2ccc(C)cc2)COC(=O)CC=C[C@@H]1C; MET
C=CCOC(=O)[C@@H]1[C@H]2C(=O)O[C@H](c3ccccc3)[C@H](c3ccccc3)N2[C@H](c2ccc(OCCOC(=O)[C@H]3C[C@H]4C(=O)N5CCC[C@H]5C(=O)N4[C@H]3c3ccc(O)cc3)cc2)[C@@]12C(=O)Nc1ccccc12; NOT MET
CCN1C(C)=C(C(=O)OC)[C@@H](c2ccccc2)N2C(=O)[C@@]3(C(=O)OC)O[C@@]12[C@@H]1C(=O)N(c2ccccc2)C(=O)[C@@H]13; MET
CCN1C(C)=C(C(=O)OC)[C@@H](c2ccccc2)N2C(=O)[C@](O)(C(=O)OC)[C@@H](c3ccccc3)C(C(C)=O)=C12; NOT MET
C=CC[C@@]1(C(=O)N2CCOCC2)N=C(c2ccc(OCCCO)cc2)O[C@@H]1c1ccccc1; NOT MET
COc1ccc(NN2C(C(O)c3cc(OC)c(OC)c(OC)c3)C=CC3C(=O)N(C4CCCCC4)C(=O)C32)cc1 (centres undefined); NOT MET
O=C1OCCC/C=C\[C@H]2OC34C=CCN(CCN5CCOCC5)C(=O)[C@H]3N(CCCCCO)C(=O)[C@@H]4C12 (some centres undefined); MET
CO[C@H]1COC(=O)CC=C[C@@H](C)COC(=O)[C@@H](C)NC(=O)CC=C[C@@H]1C; MET
